These entries and their values trace back to patent US20240309103A1.

Study Target: T1, monkey NPR1 extracellular domain expressed with a C-terminal myc-myc-hexahistidine (mfNPR1-MMH) (monkey, UniProt P16066 33-473 (human entry))
T1 construct: also called monomeric monkey NPR1
T1 chain: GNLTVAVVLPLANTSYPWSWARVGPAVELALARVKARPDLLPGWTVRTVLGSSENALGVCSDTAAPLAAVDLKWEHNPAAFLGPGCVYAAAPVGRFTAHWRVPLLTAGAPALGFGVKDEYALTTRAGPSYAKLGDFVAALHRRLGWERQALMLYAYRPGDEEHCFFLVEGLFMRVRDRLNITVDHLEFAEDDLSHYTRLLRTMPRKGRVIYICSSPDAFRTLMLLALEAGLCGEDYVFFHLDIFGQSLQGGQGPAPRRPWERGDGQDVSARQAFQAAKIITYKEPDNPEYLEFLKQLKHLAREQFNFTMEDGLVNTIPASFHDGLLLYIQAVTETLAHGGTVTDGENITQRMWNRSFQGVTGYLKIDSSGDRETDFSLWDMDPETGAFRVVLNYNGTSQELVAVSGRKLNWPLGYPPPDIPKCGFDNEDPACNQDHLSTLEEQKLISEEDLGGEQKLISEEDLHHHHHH
Assay Explanation: SPR, mAb captured, 37 C
kon values by entry
Could you give me the number in M⁻¹ s⁻¹? Just the number is fine.

Ask: So what's the measured kon for this one? mAb25508 (antibody, V domains shown) VH: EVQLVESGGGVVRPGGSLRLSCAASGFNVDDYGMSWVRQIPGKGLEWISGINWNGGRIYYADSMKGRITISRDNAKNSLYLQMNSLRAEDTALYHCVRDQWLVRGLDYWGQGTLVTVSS VL: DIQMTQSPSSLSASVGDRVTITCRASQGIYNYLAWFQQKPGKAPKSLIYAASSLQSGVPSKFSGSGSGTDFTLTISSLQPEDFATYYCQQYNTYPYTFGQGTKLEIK
Result: 782000

Ask: So what's the measured kon for this one? mAb25497 (antibody, V domains shown) VH: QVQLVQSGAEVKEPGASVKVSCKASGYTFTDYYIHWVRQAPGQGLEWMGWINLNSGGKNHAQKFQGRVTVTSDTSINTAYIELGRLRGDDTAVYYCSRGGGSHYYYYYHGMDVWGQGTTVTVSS VL: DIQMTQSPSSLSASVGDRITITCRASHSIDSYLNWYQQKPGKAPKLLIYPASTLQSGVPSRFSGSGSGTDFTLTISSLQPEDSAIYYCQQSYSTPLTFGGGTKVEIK
Result: 27700

Ask: So what's the measured kon for this one? mAb25491 (antibody, V domains shown) VH: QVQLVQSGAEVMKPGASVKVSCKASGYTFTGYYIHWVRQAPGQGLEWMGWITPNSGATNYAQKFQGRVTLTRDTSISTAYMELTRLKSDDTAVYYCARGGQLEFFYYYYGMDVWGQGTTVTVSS VL: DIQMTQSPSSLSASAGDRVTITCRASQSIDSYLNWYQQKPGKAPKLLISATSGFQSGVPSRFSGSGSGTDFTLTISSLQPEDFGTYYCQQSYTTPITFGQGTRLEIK
Result: 58300

Ask: So what's the measured kon for this one? mAb22033 (antibody, V domains shown) VH: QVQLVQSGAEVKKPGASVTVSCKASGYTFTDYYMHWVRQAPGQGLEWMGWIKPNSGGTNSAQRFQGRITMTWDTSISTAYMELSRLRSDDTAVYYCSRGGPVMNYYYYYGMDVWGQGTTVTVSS VL: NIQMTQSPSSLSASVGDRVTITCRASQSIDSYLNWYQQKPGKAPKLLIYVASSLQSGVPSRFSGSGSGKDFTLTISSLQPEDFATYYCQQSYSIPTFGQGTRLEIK
Result: 25100
